Consider the following compounds; for each one, report its IC50.
molecular target: UniProtKB P60842; assay: Inhibition of recombinant full length 6xHis-tagged EIF4A1 (unknown origin) by FP assay
Sequence (P60842 whole entry): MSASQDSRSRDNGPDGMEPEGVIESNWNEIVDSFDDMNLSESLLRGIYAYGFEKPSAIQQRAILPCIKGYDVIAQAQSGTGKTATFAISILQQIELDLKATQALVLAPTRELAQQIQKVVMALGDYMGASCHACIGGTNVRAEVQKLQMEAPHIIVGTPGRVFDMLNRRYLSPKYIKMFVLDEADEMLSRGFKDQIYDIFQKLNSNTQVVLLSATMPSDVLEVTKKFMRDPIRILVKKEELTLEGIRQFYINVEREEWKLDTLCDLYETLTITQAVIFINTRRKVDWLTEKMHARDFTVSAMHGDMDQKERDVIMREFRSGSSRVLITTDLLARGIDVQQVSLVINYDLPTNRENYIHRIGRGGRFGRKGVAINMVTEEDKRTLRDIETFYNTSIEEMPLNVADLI
The response must be a number in nM with no trailing unit.

get_value(item= COC(=O)[C@H]1[C@@H](O)[C@@]2(O)c3c(OC)cc(O[C@@H]4O[C@@H]([C@H](O)CO)CO[C@H]4OC)cc3O[C@@]2(c2ccc(OC)cc2)[C@@H]1c1ccccc1 [SILVESTROL] , readout=IC50) returns 60

get_value(item= `CC(/C=C/C(C)=C/[C@@H]1Cc2nc(cs2)CC[C@@H](N)CC(=O)O[C@@H](C)C/C(C)=C/C=C\C(=O)O1)=C\CN(C)C` , readout=IC50) returns 1

Data provenance is ChEMBL document CHEMBL6153124.
